ASSAYED SYSTEM: VIM-2 metallo-beta-lactamase (Pseudomonas aeruginosa)
TEST SUMMARY: VIM-2 metallo-beta-lactamase inhibitor potency, dose response, biochemical, epi-absorbance readout, selective inhibitors (AID 1919)
CONDITION NOTES: purified VIM-2, nitrocefin hydrolysis, epi-absorbance fluorescence
The source made the active and inactive calls.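 Rule for the calls: active = IC50 against the VIM-2 bacterial beta-lactamase enzyme at or below a set limit; inactive = IC50 above that set limit.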
Write down one outcome, taken from active, inactive

Some solved cases for reference:
> print(dat)
                                   molecule  qualitative.label
1        CCCC(=O)Nc1nnc(SCC(=O)NCc2cccs2)s1           inactive
2  Cc1cc(=O)oc2c3c(cc(OCC(=O)N[C@@H](Cc4ccccc4)C(=O)O)c12)OC(C)(C)CC3           inactive
3  O=C(CSc1nnc(NC(=O)c2cc(Br)ccc2Cl)s1)NCC1CCCO1 (centres undefined)           inactive

Turning now to a further molecule:
Please indicate how the test categorized "O=P(O)(O)c1ccccc1OCCCCCOc1ccccc1P(=O)(O)O" .
active

###

ASSAYED SYSTEM: VIM-2 metallo-beta-lactamase (Pseudomonas aeruginosa) (UniProt Q932Y6)
TEST SUMMARY: VIM-2 metallo-beta-lactamase inhibitor potency, dose response, biochemical, epi-absorbance readout, selective inhibitors (AID 1919)
CONDITION NOTES: purified VIM-2, nitrocefin hydrolysis, epi-absorbance fluorescence
Calls of active or inactive are those of the source.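 How the source made its calls: active means IC50 against the VIM-2 bacterial beta-lactamase enzyme at or below a set limit; inactive means IC50 above that set limit.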
Write down one outcome, taken from true (active), false (inactive)

Some solved cases for reference:
> print(dat)
                                    compound                            assayed.system  qualitative.label
 1           S=c1[nH]nc(-c2ccco2)n1Cc1ccccc1  VIM-2 metallo-beta-lactamase (Pseudomonas aeruginosa) (UniProt Q932Y6)               true
 2  Cc1cc(OCc2cc(C(=O)O)oc2C)c2c3c(c(=O)oc2c1)CCCC3  VIM-2 metallo-beta-lactamase (Pseudomonas aeruginosa) (UniProt Q932Y6)               true
 3    O=Cc1c(NCc2ccc(Cl)cc2)c2ccccc2[nH]c1=O  VIM-2 metallo-beta-lactamase (Pseudomonas aeruginosa) (UniProt Q932Y6)              false
 4           S=c1[nH]nc(-c2cccs2)n1Cc1ccccc1  VIM-2 metallo-beta-lactamase (Pseudomonas aeruginosa) (UniProt Q932Y6)               true
 5         CC(C)(C)c1ccc(COc2ccsc2C(=O)O)cc1  VIM-2 metallo-beta-lactamase (Pseudomonas aeruginosa) (UniProt Q932Y6)              false
 6  CC1=C(C(=O)O)N2C(=O)C(NC(=O)c3nn(C)cc3[N+](=O)[O-])C2SC1 (stereo not drawn)  VIM-2 metallo-beta-lactamase (Pseudomonas aeruginosa) (UniProt Q932Y6)              false
 7   O=C(CSc1nnc(NC(=O)C2CCCCC2)s1)NCc1ccco1  VIM-2 metallo-beta-lactamase (Pseudomonas aeruginosa) (UniProt Q932Y6)               true
 8  O=C1Nc2cc(C(=O)NCCCN3CCOCC3)ccc2S/C1=C/c1ccccc1F  VIM-2 metallo-beta-lactamase (Pseudomonas aeruginosa) (UniProt Q932Y6)              false
 9  O=c1[nH]c(SCc2n[nH]c(=S)n2-c2ccccc2)nc2sc3c(c12)CCC3  VIM-2 metallo-beta-lactamase (Pseudomonas aeruginosa) (UniProt Q932Y6)              false
10  S=c1[nH]nc(-c2ccccc2)n1CC1CCCO1 (stereo not drawn)  VIM-2 metallo-beta-lactamase (Pseudomonas aeruginosa) (UniProt Q932Y6)              false

Turning now to a further compound:
Please indicate how the test categorized "S=c1[nH]nc(-c2ccco2)n1-c1cccc2ccccc12" .
false

###

ASSAYED SYSTEM: VIM-2 metallo-beta-lactamase (Pseudomonas aeruginosa)
TEST SUMMARY: VIM-2 metallo-beta-lactamase inhibitor potency, dose response, biochemical, epi-absorbance readout, selective inhibitors (AID 1919)
CONDITION NOTES: purified VIM-2, nitrocefin hydrolysis, epi-absorbance fluorescence
Activity calls are given as the source filed them.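 Rule for the calls: active = IC50 against the VIM-2 bacterial beta-lactamase enzyme at or below a set limit; inactive = IC50 above that set limit.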
Write down one outcome, taken from yes = active, no = inactive

Some solved cases for reference:
> print(dat)
                                   compound  qualitative.label
1  CC(C)(C)c1ccc(-c2n[nH]c(=S)n2CCCN2CCOCC2)cc1                 no
2   CSc1nc(SCC(=O)O)c2c3c(sc2n1)COC(C)(C)C3                 no

Please indicate how the test categorized "Cc1cc(C(=O)OCC(=O)NC(=O)c2cccn2C)c2ccccc2n1" .
no

Please indicate how the test categorized "Cc1cccc(C(=O)Nc2nnc(SCC(=O)NCc3ccco3)s2)c1" .
no

Please indicate how the test categorized "Cc1c(C)c2c(OCC(=O)N3CCC[C@H]3C(=O)O)cc3c(c2oc1=O)CCC(C)(C)O3" .
yes

###

ASSAYED SYSTEM: VIM-2 metallo-beta-lactamase (Pseudomonas aeruginosa) (UniProt Q932Y6)
TEST SUMMARY: VIM-2 metallo-beta-lactamase inhibitor potency, dose response, biochemical, epi-absorbance readout, selective inhibitors (AID 1919)
CONDITION NOTES: purified VIM-2, nitrocefin hydrolysis, epi-absorbance fluorescence
The source made the active and inactive calls.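 The calls were made as follows: active = IC50 against the VIM-2 bacterial beta-lactamase enzyme at or below a set limit; inactive = IC50 above that set limit.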
MEASUREMENT KIND: IC50

Some entries whose results are on file:
> print(dat)
                                   compound                            assayed.system  value.reported
1  O=C(CSc1nnc(NC(=O)c2c(F)cccc2F)s1)NCc1ccccc1  VIM-2 metallo-beta-lactamase (Pseudomonas aeruginosa) (UniProt Q932Y6)         9.26 µM
2  O=C(CCN1C(=O)/C(=C/c2ccccc2F)SC1=S)NCCCn1ccnc1  VIM-2 metallo-beta-lactamase (Pseudomonas aeruginosa) (UniProt Q932Y6)         6.45 µM
3   O=C(CSc1nnc(NC(=O)C2CC2)s1)NCc1ccccc1Cl  VIM-2 metallo-beta-lactamase (Pseudomonas aeruginosa) (UniProt Q932Y6)        inactive
4       CC(C)(C)C(=O)Nc1nnc(CSCc2ccccc2F)s1  VIM-2 metallo-beta-lactamase (Pseudomonas aeruginosa) (UniProt Q932Y6)         4.99 µM
5               CCCCn1c(-c2ccoc2C)n[nH]c1=S  VIM-2 metallo-beta-lactamase (Pseudomonas aeruginosa) (UniProt Q932Y6)        inactive
6                   C=CCn1c(C2CC2)n[nH]c1=S  VIM-2 metallo-beta-lactamase (Pseudomonas aeruginosa) (UniProt Q932Y6)        inactive

Would you kindly look at the next entry?
Quick one: give measured IC50 for "CCCCn1c(-c2nn(C)c(C)c2Cl)n[nH]c1=S"
5.37 µM

###

ASSAYED SYSTEM: VIM-2 metallo-beta-lactamase (Pseudomonas aeruginosa)
TEST SUMMARY: VIM-2 metallo-beta-lactamase inhibitor potency, dose response, biochemical, epi-absorbance readout, selective inhibitors (AID 1919)
CONDITION NOTES: purified VIM-2, nitrocefin hydrolysis, epi-absorbance fluorescence
Calls of active or inactive are those of the source.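 Rule for the calls: active = IC50 against the VIM-2 bacterial beta-lactamase enzyme at or below a set limit; inactive = IC50 above that set limit.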
Write down one outcome, taken from active, inactive

Some solved cases for reference:
> print(dat)
                                   molecule  qualitative.label
1  CCCc1cc(=O)oc2c3c(cc(OCC(=O)N4CCC[C@H]4C(=O)O)c12)OC(C)(C)CC3             active
2  O=C(O)c1c(C(=O)O)c(-c2ccc(Br)cc2)n2c1CSC2             active
3             C=C(C)Cn1c(-c2cccs2)n[nH]c1=S             active

Please indicate how the test categorized CC1CCCCC1n1c(-c2cccnc2)n[nH]c1=S (configuration not stated) .
inactive

Please indicate how the test categorized "O=C(O)c1[nH]c2ccc(Cl)cc2c1CCN1C(=O)c2ccccc2C1=O" .
active

Please indicate how the test categorized "S=c1[nH]nc(C2CC2)n1Cc1ccccc1" .
active

Please indicate how the test categorized CC1CCCC(C)N1C(=O)CSc1nnc(NC(=O)c2cccs2)s1 (configuration not stated) .
inactive

Please indicate how the test categorized "Cc1c(Cl)c(-c2n[nH]c(=S)n2-c2ccc(F)cc2)nn1C" .
inactive

Please indicate how the test categorized "Cc1c(C)c2c(OCC(=O)N[C@@H](C)C(=O)O)cc3c(c2oc1=O)CCC(C)(C)O3" .
active

Please indicate how the test categorized "CCN(CC)C(=O)CSc1nc2ccc(NC(=O)CSc3nccn3C)cc2s1" .
inactive

Please indicate how the test categorized "CCCCn1c(-c2nn(C)cc2Cl)n[nH]c1=S" .
active

Please indicate how the test categorized "COc1ccccc1C(=O)Nc1nnc(SCC(=O)NCc2ccco2)s1" .
active

###

ASSAYED SYSTEM: VIM-2 metallo-beta-lactamase (Pseudomonas aeruginosa)
TEST SUMMARY: VIM-2 metallo-beta-lactamase inhibitor potency, dose response, biochemical, epi-absorbance readout, selective inhibitors (AID 1919)
CONDITION NOTES: purified VIM-2, nitrocefin hydrolysis, epi-absorbance fluorescence
Active and inactive are the calls of the source.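 Rule for the calls: active = IC50 against the VIM-2 bacterial beta-lactamase enzyme at or below a set limit; inactive = IC50 above that set limit.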
Write down one outcome, taken from active, inactive

> print(dat)
                                   molecule  qualitative.label
1       Cc1ccc(-c2n[nH]c(=S)n2-c2ccccc2)cc1           inactive
2  CCOC(=O)N=S(N)(=O)c1ccccc1 (stereo unspecified)           inactive
3  O=C(CSc1nnc(NC(=O)c2ccccc2F)s1)NCc1ccc(F)cc1           inactive

Please indicate how the test categorized "O=C(O)CC/C(=C\c1cc([N+](=O)[O-])ccc1Cl)c1nc2ccccc2s1" .
inactive

Please indicate how the test categorized "COc1ccc(-c2cc(C(F)(F)F)nc(N3CCN(C)CC3)n2)cc1" .
inactive

Please indicate how the test categorized "Cn1c(-c2sccc2OCc2ccccc2)n[nH]c1=S" .
active

Please indicate how the test categorized "COCC(=O)Nc1nnc(SCC(=O)NCc2cccs2)s1" .
active

Please indicate how the test categorized "CC(C)(C)C(=O)Nc1nnc(SCC(=O)NCc2cccs2)s1" .
active
